# System under test: T1, RSV F subtype B, furin-cleaved ectodomain stabilized in the prefusion conformation (DS-Cav1) (Respiratory syncytial virus subtype B)
# T1 construct: extracellular domain; Trimeric soluble antigen; also called Prefusion subtype B
# Protocol: BLI, IgG on AHQ sensor, 100 nM antigen
Measure name: Kd (nM)

{"Binder": "ADI-18932 (antibody, V domains shown, full-length IgG from yeast) VH: QVQLQESGPGLVRPSQTLSLTCSASGAAINSGDYYWSWIRQAPGRGLEWIGSISNRGVTDYNPSLKSRVIISADTSKNQFSLRLTSVTATDTAVYYCARDLGTLAFDPYYYYGIDVWGQGTTVTVSS VL: DIRMTQSPATLSLSPGERATLSCRASQSVSRHLAWYQQKPGQAPRLLIYDASYRVTGVPDRFSGSGSGTDFTLTISSLESEDFAIYFCQQRSTWPTFGQGTKVEIK", "Measure name": "Kd", "Measured number": 1.39}
{"Binder": "ADI-18902 (antibody, V domains shown, full-length IgG from yeast) VH: QVQLQESGPGLVKPSETLSLTCTVSGGSISGYYWSWIRQPPGRGLEWIGFIYYSGSTSYDSSLKSRVTISVDTSKNQFSLNLSSVTAADTAVYYCARSTWDYGDHFPFDYWGQGTLVTVSS VL: SYELTQPPSVSVAPGKTARITCGGNNIGIKDVHWYQLRPGQAPVLVISYDSDRPSGIPERFSGSNSGNTATLTISRVEAGDEADYFCQVWDSSPDHPYVFGTGTKLTVL", "Measure name": "Kd", "Measured number": 0.101}
{"Binder": "ADI-18960 (antibody, V domains shown, full-length IgG from yeast; also called Antibody Number 311; Ab # 311) VH: QVQLQESGPGLVKPSETLSLTCSVSGGSITNVNYYWGWIRQPPGKGLEWIGSIYYNGNTYYNPSLQSRVTMSVDTSKNHFSLRLTSVTAADTAVYFCAREGPNWELLNAFDIWGQGTTVTVSS VL: DIQVTQPPSVSVAPGQTARITCGGNNIGSKNVHWYQQKPGRAPVLVVYEDTHRPSGIPERFSGSNSGNTATLTISRVEAGDEADYYCQVWDTSSDHVVFGGGTKLTVL", "Measure name": "Kd", "Measured number": 0.183}
